Below, each entry is listed alongside its reported YAP1 (% UTC).
# Tested on: Yap1 mRNA
# PROCEDURE_TEXT: Antisense inhibition of human Yap1 in A-431 cells by cEt gapmers, single dose (Example 4, RTS4814)
# Format: cell-based
# MEASUREMENT_CONDITIONS: Table 14; A-431 cells, 5,000 cells per well, free uptake, 2,000 nM, approximately 48 hours; RTS4814; normalized to RIBOGREEN; Yap1 mRNA relative to untreated control; * = targets amplicon region of primer probe set
Strand notation (5' to 3'): a small letter for the sugar, then the base; units joined by * are phosphorothioate-linked, units joined directly phosphodiester-linked; [ ] holds rarer units or linkages, { } end groups; capitals alone tell only the bases. k = constrained ethyl (cEt); [5mC] = 5-methylcytosine; d = 2'-deoxy (DNA)
Value expressed in % UTC; do not type the unit.

The following substances have reported results that may help.
# SUBSTANCE, OBSERVED_VALUE
data = [
    ("1074848 (kG*kT*kT*dA*dT*dG*dA*dT*dA*dG*dG*d[5mC]*dA*k[5mC]*kA*k[5mC]; antisense) [Compound 1074848]", 11),
    ("1074368 (antisense kG*kA*kT*dA*dG*dT*dA*dT*d[5mC]*dA*d[5mC]*d[5mC]*dT*kG*kT*kA) [Compound 1074368]", 8),
]

QUERY: For the substance 1075296 (antisense kA*kT*kT*dA*dT*dA*dA*dG*d[5mC]*dT*dG*dT*dG*kT*kT*kG) [Compound 1075296] , report YAP1 (% UTC).
RESULT: 18

###

Reported Yap1 mRNA, % UTC by item:
# Test system: Yap1 mRNA
# PROCEDURE_TEXT: Dose-dependent inhibition of human Yap1 in A-431 cells (Example 6, 5,000 cells per well, RTS4814)
# Format: cell-based
# MEASUREMENT_CONDITIONS: Table 55; 444 nM, free uptake, A-431 cells 5,000 cells per well, 48 hours, RTS4814
Strand notation (5' to 3'): a small letter for the sugar, then the base; units joined by * are phosphorothioate-linked, units joined directly phosphodiester-linked; [ ] holds rarer units or linkages, { } end groups; capitals alone tell only the bases. k = constrained ethyl (cEt); [5mC] = 5-methylcytosine; d = 2'-deoxy (DNA)

Observe how each entry below is paired with its result.
# SUBSTANCE, Yap1 mRNA, % UTC
rows = [
    ("716501 (antisense kG*k[5mC]*kA*d[5mC]*dT*dG*dA*dA*dA*dG*dT*dA*d[5mC]*kT*kT*kA) [compound 716501]", "69 % UTC"),
    ("716500 (antisense kA*kA*k[5mC]*dT*dT*d[5mC]*dT*dT*dA*d[5mC]*dT*dT*d[5mC]*k[5mC]*kA*kA) [compound 716500]", "96 % UTC"),
]

Could you now look at the following substance, please?
QUERY: Please report the measured Yap1 mRNA, % UTC for 716554 (antisense kA*kT*kG*d[5mC]*dT*dT*dG*d[5mC]*dG*dA*dG*dG*dA*kT*kA*kA) [compound 716554]
RESULT: 90 % UTC

###

As shown below, each of these substances has a reported Yap1 mRNA, % UTC value.
# Tested on: Yap1 mRNA
# PROCEDURE_TEXT: Dose-dependent inhibition of human Yap1 in A-431 cells (Example 8, 10,000 cells per well, RTS4814)
# Type: cell-based
# MEASUREMENT_CONDITIONS: 125.0 nM; A-431 cells, 10,000 cells per well, free uptake, approximately 48 hours, RTS4814
Strand notation (5' to 3'): a small letter for the sugar, then the base; units joined by * are phosphorothioate-linked, units joined directly phosphodiester-linked; [ ] holds rarer units or linkages, { } end groups; capitals alone tell only the bases. k = constrained ethyl (cEt); [5mC] = 5-methylcytosine; d = 2'-deoxy (DNA)
# output: bare number, implied unit % UTC

# SUBSTANCE, TEST_SYSTEM, OBSERVED_VALUE
data = [
    ("1075810 (kG*kT*kA*dG*d[5mC]*dA*dA*dT*dA*dG*dA*dG*dT*kA*kA*k[5mC]; antisense) [compound 1075810]", "Yap1 mRNA", 28),
    ("1076327 (kG*kA*kT*dA*dA*dG*d[5mC]*dA*dA*dG*dG*dT*dT*k[5mC]*kT*k[5mC]; antisense) [compound 1076327]", "Yap1 mRNA", 38),
]

Shift focus to the following entry.
QUERY: Kindly indicate its recorded Yap1 mRNA, % UTC. Item: 1074578 (DNA kG*k[5mC]*kT*dT*dA*dT*dT*dT*d[5mC]*dT*dG*dT*d[5mC]*kA*kT*kG) [compound 1074578]
RESULT: 30

###

Below, each of the substances is paired with its reported Kidney weight value.
# PROCEDURE_TEXT: Tolerability in Balb/c mice, body and organ weights (Example 10)
# Format: in vivo
# MEASUREMENT_CONDITIONS: 50 mg/kg subcutaneously twice a week for four weeks, end of study
Strand notation (5' to 3'): a small letter for the sugar, then the base; units joined by * are phosphorothioate-linked, units joined directly phosphodiester-linked; [ ] holds rarer units or linkages, { } end groups; capitals alone tell only the bases. k = constrained ethyl (cEt); [5mC] = 5-methylcytosine; d = 2'-deoxy (DNA)
Please respond with the number in g and leave the unit unwritten.

QUERY: Note down Kidney weight recorded for 715558 (k[5mC]*kA*kG*dG*dA*dA*dG*dT*dT*dA*dT*dT*d[5mC]*kA*kG*k[5mC]; antisense) [compound 715558]
RESULT: 0.38

QUERY: Supply recorded Kidney weight for 715609 (kT*kG*kT*dG*dT*dA*dG*dG*d[5mC]*dT*dG*dA*d[5mC]*kT*kT*kA; antisense) [compound 715609] here.
RESULT: 0.33

QUERY: Indicate its recorded Kidney weight; the substance in question is 715480 (kG*kG*kA*dA*dA*d[5mC]*d[5mC]*dA*dT*dT*dA*dT*dT*kA*k[5mC]*kT; antisense) [compound 715480]
RESULT: 0.34

###

# Test system: Yap1 mRNA
# PROCEDURE_TEXT: Dose-dependent inhibition of human Yap1 in A-431 cells (Example 8, 10,000 cells per well, RTS4814)
# Format: cell-based
# MEASUREMENT_CONDITIONS: 125.0 nM; A-431 cells, 10,000 cells per well, free uptake, approximately 48 hours, RTS4814
Strand notation (5' to 3'): a small letter for the sugar, then the base; units joined by * are phosphorothioate-linked, units joined directly phosphodiester-linked; [ ] holds rarer units or linkages, { } end groups; capitals alone tell only the bases. k = constrained ethyl (cEt); [5mC] = 5-methylcytosine; d = 2'-deoxy (DNA)
Yap1 mRNA, % UTC vs 20 % UTC: at or above is YES, below is NO.

As a guide, the following entries are already answered.
# SUBSTANCE, GROUP_LABEL
records = [
    ("1075686 (kG*kT*kA*dA*dT*dT*dA*d[5mC]*dA*dG*dT*dG*dT*k[5mC]*kT*k[5mC]; antisense) [compound 1075686]", "YES"),
    ("1074800 (k[5mC]*kA*kA*dA*dT*dA*dG*dT*dG*d[5mC]*dT*dT*dT*kG*kG*kA; antisense) [compound 1074800]", "YES"),
]

QUERY: Hi team, for 1076396 (antisense k[5mC]*kT*kA*dT*dA*dT*dT*dT*dG*dA*dG*d[5mC]*d[5mC]*kA*kT*kG) [compound 1076396] , is the recorded Yap1 mRNA, % UTC at or above 20 % UTC?
RESULT: YES

QUERY: For this substance, is measured Yap1 mRNA, % UTC 20 % UTC or higher? 1075137 (kG*kA*kT*dT*dA*dA*dA*dT*dA*d[5mC]*dT*dG*dA*k[5mC]*k[5mC]*kA; antisense) [compound 1075137]
RESULT: YES

QUERY: Decide: Yap1 mRNA, % UTC of 1075081 (antisense kG*kA*kT*dT*dA*d[5mC]*dA*dA*dA*dG*dA*d[5mC]*dA*kG*k[5mC]*k[5mC]) [compound 1075081] >= 20 % UTC?
RESULT: YES

QUERY: API: above_or_equal(metric=Yap1 mRNA, % UTC, cutoff=20 % UTC) for item 1076388 (antisense kG*kA*kA*dA*dT*dA*dT*dT*d[5mC]*dG*dA*dG*dA*kA*kG*kA) [compound 1076388]
RESULT: YES

QUERY: Test whether the substance 1074595 (DNA kT*kA*kG*dA*dA*dG*dT*dA*dG*dG*dA*dG*d[5mC]*kA*kA*kG; antisense) [compound 1074595] records Yap1 mRNA, % UTC of 20 % UTC or higher.
RESULT: YES

QUERY: Tell me whether Yap1 mRNA, % UTC is at least 20 % UTC here: 1074484 (kT*k[5mC]*kA*d[5mC]*dT*dA*dA*dT*dA*dT*dG*dG*dT*k[5mC]*kA*kT; antisense) [compound 1074484]
RESULT: NO
